The following variants are shown together with reported scaled log2 fold change values.
B1: library; numbered along this chain (parent)
chain: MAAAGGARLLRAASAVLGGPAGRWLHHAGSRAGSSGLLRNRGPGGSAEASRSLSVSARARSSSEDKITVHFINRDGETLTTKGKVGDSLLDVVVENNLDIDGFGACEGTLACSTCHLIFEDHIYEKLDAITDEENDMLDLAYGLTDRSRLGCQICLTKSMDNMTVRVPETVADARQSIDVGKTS

Variants of: B1
Experiment: scaled log2 fold change in cell abundance, elesclomol vs control (0 = silent mean, 1 = nonsense mean) (scaled log2 ratio); higher = higher viability under elesclomol (loss of FDX1 cuproptosis function);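 also: variant abundance is its share of total variant reads in each endpoint sample, from next-generation sequencing of the integrated ORF PCR-amplified out of genomic DNA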
Conditions: with HEK293T FDX1 KO; elesclomol 40 nM; glucose 10 mM; 11 days
quantity-name: scaled log2 fold change

1. P43M: 0.0394
2. N97F: -0.943
3. Q176E: -0.685
4. K158W: -0.562
5. L17Y: 0.613
6. A105Y: 0.955
7. V69Y: 1.86
8. L98F: -0.902
9. T81Q: -0.00467
10. N162P: -0.234
11. D139R: 1.09
12. H122R: 0.00681
13. D173K: 0.0902
14. Q153V: 0.299
15. D99P: -0.37
16. S35Y: -0.958
17. T164N: 1.04
18. N73R: -0.254
19. A174H: -0.0112
20. E107K: 0.255
21. L25Q: -1.08
22. G102L: -0.752
